Assay: NCI Yeast Anticancer Drug Screen. Data for the cln2 rad14 strain (AID 165);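 further: 0% = growth equal to vehicle treated cultures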
Details: S. cerevisiae cln2 rad14 strain, at 50.0 µM
About 79,000 compounds went through this panel and 15% of them were active in at least one assay; those are over-represented in the sample as a whole. Calls of active or inactive are those of the source. No stated cut-off is given here; in the data, active means growth inhibition above about 70%; inactive means the rest.
Outcomes: 1.0 = active, 0.0 = inactive

{"columns": ["molecule", "labelClass"],
 "data": [
  ["O=S1(=O)C=C(N2CCCCC2)c2ccccc21", 0.0],
  ["Cc1ccc(C(=O)Nc2ccc(CP(=O)(O)O)cc2)cc1NC(=O)c1cccc(N)c1", 0.0],
  ["C/C=C1\\CN2CCc3c([nH]c4ccccc34)C2CC1CCO (configuration not stated)", 0.0],
  ["NC1(C(=O)O)CCCCC1", 0.0],
  ["COC(=O)C1C2C=CC(CC2)C1C(=O)OC (configuration not stated)", 0.0],
  ["CC1(C)CC(N2CCN(C3CC(C)(C)NC(C)(C)C3)CC2)CC(C)(C)N1", 0.0],
  ["CC1=CC2C3C(=O)NC(=O)C3C1C1C3C(=O)NC(=O)C3C21 (configuration not stated)", 0.0],
  ["CC/C(C)=N\\NC(=O)CC(=O)N/N=C(/C)CC", 0.0],
  ["O=C1c2cccc3cc([N+](=O)[O-])cc(c23)C(=O)N1Cc1ccco1", 0.0],
  ["CC1=NN(c2cc(S(=O)(=O)O)ccc2Cl)C(=O)C1N=Nc1ccccc1 (configuration not stated)", 0.0],
  ["O=S1(=O)C2CCC(Br)C1CCC2Br (configuration not stated)", 0.0],
  ["Cc1c([N+](=O)[O-])cc(C(C)(C)C)c(OC(=O)CCl)c1[N+](=O)[O-]", 1.0]
]}

* * *

Test: NCI Yeast Anticancer Drug Screen. Data for the sgs1 mgt1 strain (AID 161);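 further: 0% = growth of cultures given vehicle only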
Settings: S. cerevisiae sgs1 mgt1 strain, at 50.0 µM
About 79,000 compounds went through this panel and 15% of them were active in at least one assay; those are over-represented in the sample as a whole. The source made the active and inactive calls. No stated cut-off is given here; in the data, active means growth inhibition above about 70%; inactive means the rest.
Outcomes: 1 = active, 0 = inactive

{"columns": ["molecule", "labelClass"],
 "data": [
  ["CN(/N=C/c1ccccn1)C1=NCCCCN1", 0],
  ["CCN(CC)c1ccccc1S(=O)(=O)O", 0],
  ["NCCNC(=O)c1ccccc1", 0],
  ["O=C(Cn1c(=O)oc2ccc(C(=O)c3ccc(F)cc3)cc21)c1ccc([N+](=O)[O-])cc1", 0],
  ["O=C(O)C1CC2C3CCC2C1C3=O (stereo unspecified)", 0],
  ["COC(OC)c1cc(C(=O)O)c2ccccc2n1", 0],
  ["CCCCCCCCCSCCOC(=S)N(C)C", 1],
  ["CCCC(C)C(C)O (stereo unspecified)", 0],
  ["O=C1NC(=O)C(c2ccccc2)(c2ccsc2)N1 (stereo unspecified)", 0],
  ["COc1ccc(C2=C(c3ccccc3)C(=O)C(c3ccccc3)=C2c2ccccc2)cc1", 0],
  ["O=C1c2cc([N+](=O)[O-])ccc2-c2c(F)cccc21", 0],
  ["CCOC(=O)c1c(O)c(Cc2ccccc2)c(=O)n2c1[nH]c1cc(C)c(C)cc12", 0],
  ["Nc1ncc([N+](=O)[O-])c(N)n1", 0],
  ["Cc1cc(C(N)=O)c2ccccc2n1", 0],
  ["COc1ccc(OCOCOc2ccc(OC)cc2)cc1", 0],
  ["c1ccc2c(c1)C1OC2c2ccccc21", 0],
  ["O=S(=O)(O)c1ccccc1", 0],
  ["N#CCCN1C(=O)C2(CCC#N)CCCCC2(O)N=C1c1ccccc1 (stereo unspecified)", 0],
  ["O=CC(O)C(O)C(O)C(O)C(=O)O.O=CC(O)C(O)C(O)C(O)C(=O)O.[NH-]C1CCCCC1[NH-].[Pt+2] (stereo unspecified)", 0],
  ["CC(=O)CCn1c(=S)sc2ccccc21", 0],
  ["COc1ccc(-n2nc3c(ccc4ccccc43)c2N)cc1", 0],
  ["CC[n+]1c(/C=C\\N(C(C)=O)c2ccccc2)oc2ccccc21", 0],
  ["O=C(O)/C=C\\C(=O)Nc1ccccc1Cl", 0],
  ["O=S(=O)(O)c1cc(O)ccc1O.O=S(=O)(O)c1cc(O)ccc1O.[NH-]C1CCCCC1[NH-].[Pt+2]", 0],
  ["CCCCOC(=O)C(C)OC(=O)Nc1ccccc1 (stereo unspecified)", 0],
  ["O=[N+]([O-])c1ccc2c(c1)Cc1cc(N(CBr)CBr)ccc1-2", 0]
]}

* * *

growth inhibition reference
Experiment: NCI Yeast Anticancer Drug Screen. Data for the cln2 rad14 strain (AID 165);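 further: 0% = growth equal to vehicle treated cultures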
Conditions: S. cerevisiae cln2 rad14 strain, at 50.0 µM, active compounds read high
This is part of a sample that, as a whole, favours compounds with a hit. Of some 79,000 tested, about 15% had one in any assay.

{"columns": ["compound", "growth inhibition, %"],
 "data": [
  ["CCOC(=O)c1cc(=O)[nH]c2ccc(OC)cc12", 35.6],
  ["CCCCC(CCCC)NCC(C)OC(=O)c1ccc(N)cc1 (stereo unspecified)", -26.8],
  ["OC(C(=S)N1CCOCC1)(c1ccccc1)c1ccccc1", 25.8],
  ["OC(CBr)(c1ccccc1)c1ccccc1", 31.3],
  ["Brc1ccc(N=C2NN=CC2(c2ccccc2)c2ccccc2)cc1", 4.85],
  ["CC(C)N=C(NC#N)NS(=O)(=O)c1cnccc1Nc1ccc(Cl)cc1", -1.9]
]}

* * *

Assay: NCI Yeast Anticancer Drug Screen. Data for the cln2 rad14 strain (AID 165);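 further: 0% = growth equal to vehicle treated cultures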
Conditions: S. cerevisiae cln2 rad14 strain, at 50.0 µM, active compounds read high
About 79,000 compounds went through this panel and 15% of them were active in at least one assay; those are over-represented in the sample as a whole.

{"columns": ["compound", "unitsSymbol", "growth inhibition"],
 "data": [
  ["Cc1c(-c2ccccc2)c(=O)oc2ccc(Cl)cc12", "%", -9.85],
  ["CC(=O)OCC1OC(Nc2[nH]c(=O)n(C)c(=O)c2C(=O)CCl)C(OC(C)=O)C(OC(C)=O)C1OC(C)=O (centres undefined)", "%", -2.55],
  ["C=CCC1(C(=O)NC)c2ccccc2-c2ccccc21", "%", -18.8],
  ["CN(C)CCCC1(O)c2ccccc2Sc2cc(Cl)ccc21 (centres undefined)", "%", 18.6],
  ["C/C=C/C=C\\C(=O)C1c2cccc(O)c2C(=O)c2c(O)cc(C)cc21 (centres undefined)", "%", 29.6],
  ["CC(C)Oc1ccc(C(=O)OCCC(C)N2CCCC2)cc1 (centres undefined)", "%", 31.5],
  ["COC(=O)c1ccc(C(=O)OC)c2nc3cc(C)ccc3nc12", "%", 10.1],
  ["O=[N+]([O-])c1ccc(OCCCCCBr)c(Cl)c1", "%", -26.7],
  ["CC1=C(C(=O)CC(=O)C(=O)Nc2ccc(C)cc2)Sc2ccccc2N1", "%", 21.9],
  ["CC(=O)Nc1ccc([N+](=O)[O-])cc1", "%", 5.55],
  ["O=C(O)CCc1ccsc1", "%", -28.4],
  ["COC(=O)C(=O)c1c(C(=O)OC)nc2nnc(N)n2c1-c1ccc(Cl)c(Cl)c1", "%", -29.9],
  ["Cc1ccc(S)c(C(O)(C(F)(F)F)C(F)(F)F)c1", "%", 3.55],
  ["CC(=O)N(C(C)=O)c1ccccc1/C=C1\\CCOC1=O", "%", -5.05],
  ["CCOC(=O)COc1cc2c(cc1Cc1ccc(OC)cc1)OCO2", "%", 6.2],
  ["O=C(c1ccncc1)C(C(c1ccccc1)N1CCOCC1)N1CCOCC1 (centres undefined)", "%", 39.5],
  ["COC(=O)C1CCC[P+]1(C)C (centres undefined)", "%", 13.8],
  ["CCCCCCCCCCCCCCCCCCN=C(N)N", "%", 22.4],
  ["[Cl][Pt+2][Cl].[NH-]C(CO)C([NH-])CO (centres undefined)", "%", -15.8],
  ["O=C1C(=O)N(c2cc(Cl)ccc2Cl)C(=O)C(=O)C1c1nc2ccccc2s1", "%", -18.8],
  ["CC(=O)OC1(C#N)CCCCC1", "%", 23.1],
  ["OCCN(CCO)c1ccc2c(c1)Cc1cc(Br)ccc1-2", "%", -2.7],
  ["O=C(c1ccccc1)c1ccc2cccc3c2c1CC3", "%", 20.8],
  ["Nc1ncnc2c1ncn2-c1ccccc1Cl", "%", -1.4],
  ["O=P(NC1CCCCC1)(NC1CCCCC1)c1ccccc1", "%", 18.3],
  ["NC(=O)c1csc(N)n1", "%", 3.55],
  ["O=C(O)C1CCCN1Cc1cc2ccccc2c2ccccc12 (centres undefined)", "%", 8.6],
  ["COc1cc(Cl)ccc1NC(=O)Oc1ccc(C=O)cc1OC", "%", 9.85],
  ["O=S1(=O)NC2CCC3NS(=O)(=O)NC4CCC(N1)N4S(=O)(=O)N23 (centres undefined)", "%", 6.6],
  ["CCC(=O)[C@H]1CC[C@H]2[C@@H]3CCC4=CC(=O)CC[C@]4(C)[C@H]3CC[C@]12C", "%", 6.5],
  ["c1ccc(CC2=NCCc3ccccc32)cc1", "%", 1.15],
  ["CC(=O)NC1=N/C(=C\\c2ccc(Cl)cc2)C(=O)N1/C=C1\\C(=O)Oc2ccccc2C1=O", "%", 26],
  ["Cc1cc2c(c(C(C)(C)C)c1)OC(=O)/C2=C1/C(=O)Oc2c1cc(C)cc2C(C)(C)C", "%", 0.85],
  ["COC1CC(OC(=O)c2ccccc2)C(OC(=O)c2ccccc2)C(CBr)O1 (centres undefined)", "%", 91],
  ["c1ccc(CN2CCC(=NN3CCCCC3)CC2)cc1", "%", 15.2],
  ["CCc1cc2c(oc3cc(C)ccc32)c(=O)n1C", "%", 13.5],
  ["CCc1ccc(CC(=S)N2CCOCC2)cc1", "%", -1.7],
  ["N#CC1=C(N2CCCC2)NC(=O)CC1=O", "%", 35.6],
  ["O=C(Nc1ccc(Cl)cc1Cl)C1C(=O)C(=O)N(c2ccc(Cl)cc2Cl)C1=O (centres undefined)", "%", 26],
  ["O=C(CCCc1ccc([N+](=O)[O-])cc1)c1ccccc1", "%", -28.4],
  ["NNC(=O)c1ccc(Cl)c(Cl)c1", "%", 2.85],
  ["CCc1n[nH]c(=S)n1/N=C/c1ccc(-c2ccc([N+](=O)[O-])cc2)o1", "%", 9.85],
  ["O=C(NCc1cccnc1)Nc1cccc2c(NC(=O)NCc3cccnc3)cccc12", "%", 14.5],
  ["O=C1c2ccccc2C(O)N1CCc1c[nH]c2ccccc12 (centres undefined)", "%", 8.2],
  ["Cc1cc(=O)[nH]c(/N=C(/N)N(C)C)n1", "%", 11.4],
  ["COC(=O)CC1=CCCc2ccccc21", "%", 7],
  ["NC(=O)C(=O)CC(=O)c1ccccc1NC1=CC(=O)C(=O)c2ccccc21", "%", 30.4],
  ["Clc1ccc(-c2nnc(-c3cccc4ccccc34)o2)cc1Cl", "%", 54],
  ["c1ccc(C2(c3ccccc3)c3ccccc3-c3ccccc32)cc1", "%", -17.9]
]}
